- EXPERIMENTAL SYSTEM: T1, human TREM2 (human, UniProt Q9NZC2 19-174, limits assumed)
- T1 construct: also called triggering receptor expressed on myeloid cells 2
- T1 sequence: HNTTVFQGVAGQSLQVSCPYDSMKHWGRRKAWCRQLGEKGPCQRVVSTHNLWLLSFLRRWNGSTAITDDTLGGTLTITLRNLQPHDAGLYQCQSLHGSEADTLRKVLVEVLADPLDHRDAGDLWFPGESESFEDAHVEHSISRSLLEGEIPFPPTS
- EXPERIMENTAL PROTOCOL: 1st screen, 10 nM Ab
MEASURED ATTRIBUTE: Binding Signal

// worked examples, Binding Signal included
BINDER	READOUT VALUE
V15 (antibody, V domains shown, also called 6E7 variant V15) VH: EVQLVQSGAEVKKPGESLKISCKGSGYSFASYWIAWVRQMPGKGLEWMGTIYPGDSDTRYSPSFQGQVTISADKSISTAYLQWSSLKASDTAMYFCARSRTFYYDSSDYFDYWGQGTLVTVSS VL: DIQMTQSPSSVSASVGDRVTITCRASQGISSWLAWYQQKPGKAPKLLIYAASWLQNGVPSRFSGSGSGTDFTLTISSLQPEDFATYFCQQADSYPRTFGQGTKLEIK	5.23 fold over 6E7 parental antibody
V84 (antibody, V domains shown, also called 6E7 variant V84) VH: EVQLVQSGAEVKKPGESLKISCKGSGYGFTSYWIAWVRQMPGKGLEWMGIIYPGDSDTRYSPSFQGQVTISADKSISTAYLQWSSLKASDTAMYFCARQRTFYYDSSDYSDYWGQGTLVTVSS VL: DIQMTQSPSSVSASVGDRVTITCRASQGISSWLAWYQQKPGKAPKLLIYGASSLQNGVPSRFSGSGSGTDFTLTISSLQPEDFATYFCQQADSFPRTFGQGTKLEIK	1.44 fold over 6E7 parental antibody

Consider the record given below.
## Input Answer with reported Binding Signal of V62 (antibody, V domains shown, also called 6E7 variant V62) VH: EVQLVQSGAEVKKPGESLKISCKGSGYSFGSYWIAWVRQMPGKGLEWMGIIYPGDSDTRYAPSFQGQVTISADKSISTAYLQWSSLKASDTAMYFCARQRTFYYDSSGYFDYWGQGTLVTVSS VL: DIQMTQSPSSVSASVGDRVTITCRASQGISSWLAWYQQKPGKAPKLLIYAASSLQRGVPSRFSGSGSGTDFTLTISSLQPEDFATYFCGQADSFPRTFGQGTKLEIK
## Output 2.49 fold over 6E7 parental antibody
